From: paper PMC12207590

target.desc: MATE2K (Homo sapiens)
test.description: Uptake ratio in MATE2K-overexpressing HEK293 cells vs empty vector (2.5 μM, 1 min, HPLC-MS/MS)
Type: cell-based
experimental.readout: MATE2
Respond with the number and no other words.

Guide cases for MATE2, answers given:
* COc1cc2c(cc1OC)[C@H](C)NCC2 [Salsolidine] | 1.46
* CCCCC[C@H](O)/C=C/[C@H]1[C@H](O)CC(=O)[C@@H]1C/C=C\CCCC(=O)O [Prostaglandin E2] | 1.21
* CC(=O)O[C@H]1C[C@@H]2CC[C@@H]3[C@H](CC[C@@]4(C)[C@H]3C[C@H]([N+]3(C)CCCCC3)[C@@H]4OC(C)=O)[C@@]2(C)C[C@@H]1N1CCCCC1 [Vecuronium] | 4.72

Exercise: Look up MATE2 for this compound: C1CCN2C[C@H]3C[C@H](CN4CCCC[C@@H]34)[C@H]2C1 [Sparteine (-), Sparteine]
Key: 1.66

Exercise: Returns the measured MATE2 for the input compound. Input: COc1ccc([C@@H](CN(C)C)C2(O)CCCCC2)cc1 [Venlafaxine (S)]
Key: 1.44

Exercise: Could you share which MATE2 value was measured for Cc1nc2n(c(=O)c1CCN1CCC(c3noc4cc(F)ccc34)CC1)CCCC2 [Risperidone] ?
Key: 1.37

Exercise: Query (compound): CC(C)c1cccc(C(C)C)c1O [Propofol] ; field requested: MATE2
Key: 0.8

Exercise: Dear colleague, I am looking for the recorded MATE2 of the following compound: C1CCN2C[C@@H]3C[C@@H](CN4CCCC[C@@H]34)[C@H]2C1 [Sparteine (+), Sparteine]
Key: 1.31

###

This listing pairs molecules with measured MATE1 (uptake ratio).
target.desc: MATE1 (Homo sapiens)
Sequence (Q96FL8 whole entry): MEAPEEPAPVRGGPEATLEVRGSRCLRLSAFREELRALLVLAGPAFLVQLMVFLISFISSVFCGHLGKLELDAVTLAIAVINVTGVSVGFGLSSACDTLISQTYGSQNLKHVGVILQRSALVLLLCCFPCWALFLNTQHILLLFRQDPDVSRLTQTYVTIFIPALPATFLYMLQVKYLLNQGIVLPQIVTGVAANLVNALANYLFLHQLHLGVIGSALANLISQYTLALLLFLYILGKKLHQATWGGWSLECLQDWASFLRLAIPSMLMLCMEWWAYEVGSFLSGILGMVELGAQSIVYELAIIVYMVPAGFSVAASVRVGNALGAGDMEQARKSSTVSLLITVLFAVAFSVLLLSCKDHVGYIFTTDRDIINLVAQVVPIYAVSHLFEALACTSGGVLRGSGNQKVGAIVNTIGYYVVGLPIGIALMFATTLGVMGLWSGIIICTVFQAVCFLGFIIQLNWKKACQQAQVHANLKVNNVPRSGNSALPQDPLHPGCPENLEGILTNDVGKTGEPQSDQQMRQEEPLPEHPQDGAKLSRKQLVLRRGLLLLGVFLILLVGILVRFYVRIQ
test.description: Uptake ratio in MATE1-overexpressing HEK293 cells vs empty vector (2.5 μM, 1 min, HPLC-MS/MS)
Format: cell-based
The response must contain the number and no unit.

Look over these answered cases.
* CCC(Cc1ccc2c(c1)OCO2)NC (centres unmarked) | 1.35
* NC1Cc2cc3c(cc2C1)OCO3 | 1.14
* CC(N)[C@H](O)c1ccc(O)c(O)c1 (stereo partly drawn) [Alpha-methylnorepinephrine (-), Alpha-methylnorepinephrine] | 1.85

Exercise: Give MATE1 (uptake ratio) (MATE1 (Homo sapiens)) of the following molecule: N=C(N)NC(=N)Nc1ccc(Cl)cc1 [1-(4-Chlorophenyl)biguanide]
Key: 6.97

Exercise: Kindly state the measured MATE1 (uptake ratio) obtained for NCCc1ccc(Oc2ccc(O)cc2)c(I)c1 with MATE1 (Homo sapiens).
Key: 1.36

###

target.desc: MATE2K (Homo sapiens, UniProt Q86VL8)
Sequence (Q86VL8 1-566 isoform Q86VL8-3): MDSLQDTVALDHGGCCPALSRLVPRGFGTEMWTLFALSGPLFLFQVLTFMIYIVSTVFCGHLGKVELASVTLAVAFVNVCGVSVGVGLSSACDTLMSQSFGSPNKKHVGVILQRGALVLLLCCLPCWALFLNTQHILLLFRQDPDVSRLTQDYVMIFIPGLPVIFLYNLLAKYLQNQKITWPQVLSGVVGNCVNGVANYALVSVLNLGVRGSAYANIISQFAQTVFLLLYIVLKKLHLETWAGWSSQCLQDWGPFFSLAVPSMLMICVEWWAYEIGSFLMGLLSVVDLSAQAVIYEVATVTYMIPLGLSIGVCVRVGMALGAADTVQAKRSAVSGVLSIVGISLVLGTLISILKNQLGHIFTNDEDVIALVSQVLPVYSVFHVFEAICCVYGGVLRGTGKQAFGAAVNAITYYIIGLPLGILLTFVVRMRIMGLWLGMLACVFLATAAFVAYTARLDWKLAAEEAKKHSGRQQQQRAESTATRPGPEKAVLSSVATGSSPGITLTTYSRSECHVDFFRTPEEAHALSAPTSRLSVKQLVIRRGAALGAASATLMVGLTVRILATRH
test.description: Uptake ratio in MATE2K-overexpressing HEK293 cells vs empty vector (2.5 μM, 1 min, HPLC-MS/MS)
Format: cell-based
experimental.readout: MATE2 (uptake ratio)
Respond using a number only.

Previously resolved entries follow.
- NC1Cc2cc3c(cc2C1)OCO3 [5,6-Methylenedioxy-2-aminoindane]: 1.24
- COc1ccc(CCN)cc1O [4-Methoxy-m-tyramine]: 1.19
- C[C@]12CCC(=O)C=C1CC[C@@H]1[C@@H]2CC[C@@]2(C)[C@H]1CC[C@]2(C)O [17-Alpha-methyltestosterone]: 1.22
- NC12CC3CC(CC(C3)C1)C2 [Amantadine]: 1.48
- N=C(N)NCCC[C@H](NC(=O)c1ccc2ccccc2c1O)C(=O)N1CCC[C@H]1C(N)=O [APC366]: 1.41
- Cn1c(=O)[nH]c2nc[nH]c2c1=O [1-Methylxanthine]: 0.96

Exercise: Observed MATE2 (uptake ratio) on MATE2K (Homo sapiens, UniProt Q86VL8) for NCCc1c[nH]c2c(O)cc(O)cc12 [5,7-Dihydroxytryptamine] , please.
Key: 0.84

Exercise: What reported MATE2 (uptake ratio) corresponds to CCC(Cc1ccc2c(c1)OCO2)NC (centres unmarked) on MATE2K (Homo sapiens, UniProt Q86VL8)?
Key: 1.24

Exercise: Given the entry CNCC/C=C1/c2ccccc2CC(O)c2ccccc21 (centres unmarked) [10-OH-Nortriptyline] , what MATE2 (uptake ratio) was observed with MATE2K (Homo sapiens, UniProt Q86VL8)?
Key: 1.14

Exercise: Please state recorded MATE2 (uptake ratio) (tested on MATE2K (Homo sapiens, UniProt Q86VL8)) of CC1(C)C[C@@H]1C(=O)N/C(=C\CCCCSC[C@H](N)C(=O)O)C(=O)O [Cilastatin]
Key: 0.96

Exercise: Checklist item: MATE2 (uptake ratio) tested on MATE2K (Homo sapiens, UniProt Q86VL8), entry CCCC[N+]1(C)[C@@H]2C[C@@H](OC(=O)[C@H](CO)c3ccccc3)C[C@H]1[C@@H]1O[C@@H]12 (some centres unmarked) [Butylscopolamine] , value?
Key: 1.7

Exercise: Can you look up MATE2 (uptake ratio) on MATE2K (Homo sapiens, UniProt Q86VL8) for CCCCNC(=N)NC(=N)N [Buformin] ?
Key: 2.37

Exercise: API: value(readout=MATE2 (uptake ratio), system=MATE2K (Homo sapiens, UniProt Q86VL8)) for record CC(C)(C)NCC(O)c1cc(Cl)c(N)c(Cl)c1 (centres unmarked) [Clenbuterol]
Key: 1.18

Exercise: Request body: readout MATE2 (uptake ratio), system MATE2K (Homo sapiens, UniProt Q86VL8), query NC(=O)NCCC[C@H](N)C(=O)O [Citrulline] . Return the value.
Key: 1.26
